Experiment: folding enthalpy; higher = less favourable; fluorescence melt of hairpins on a sequencing array, two-state fit
Conditions: sodium 0.088 M
folding enthalpy by entry:

seqString	unitInfo	folding enthalpy
GTCATCGGAAACAATGAC (((((.(....).)))))	kcal/mol	-28
GCCTAGCGAAAGCAAGGC ((((.((....)).))))	kcal/mol	-29.3
GTAGGACGAAAGTCTAC (((.(((....))))))	kcal/mol	-17.2
GTGGAAGCGAAAGCTCAC (((..(((....))))))	kcal/mol	-18.8
GTGGGGCGAAAGCCCAC (((.(((....))))))	kcal/mol	-12.8
GTGCCCTCGAAAGAGCAC (((..(((....))))))	kcal/mol	-18.8
GCAGTTGGAAACAACCGC ((.((((....)))).))	kcal/mol	-23.6
GCACTGCGAAAGCTGCGC ((.(.((....)).).))	kcal/mol	-22.5
GGGCACGAAAGTGACCC ((((((....))).)))	kcal/mol	-13.2
GATCGTGTTGACGATC ((((((....))))))	kcal/mol	-29.3
GCAGTAGGAAACTACCAC (..((((....))))..)	kcal/mol	-6.77
GGCGTTGGAAACAACGTC (.(((((....))))).)	kcal/mol	-25.4

###

Test: folding enthalpy; higher = less favourable; fluorescence melt of hairpins on a sequencing array, two-state fit
Settings: sodium 0.088 M
folding enthalpy by entry:

seqString	folding enthalpy [kcal/mol]
GGAACAGGAAACTGTTCC (((((((....)))))))	-35.9
GATCAGTGTCTGATC ((((((...))))))	-34.8
GCCAACGAAAGTTGAGGC ((((((....)))..)))	-19.4
GAGCCGGCGAAAGCCCTC (((..(((....))))))	-8.17
GTGCGCGAAAGCGCCCAC ((((((....)))..)))	-6.88
GATTCTGAAAAGAATC ((((((....))))))	-33.1
GCCGTGACGAAAGTCGGC (((..(((....))))))	-23.3
CGATTCCGGAAACGGTCG (((..(((....))))))	-27.7
GAGGTTGCGAAAGCACTC (((..(((....))))))	-11.3
GCAATCGGAAACAATTGC (((((.(....).)))))	-27.9
GGCATGCCGAAAGGCGCC (((..(((....))))))	-16
GGGGCCGAAAGGCCTCCC ((((((....)))..)))	-9.22
GACAACGAAAGTTACGTC ((((((....)))..)))	-12.5
GAGCCAGCGAAAGCTCTC (((..(((....))))))	-10.3
GTTCAGCGAAAGCTTAAC (((.(((....))).)))	-30.2
GGTACCGAAAGGTCTACC ((((((....)))..)))	-15
GATCATATTTATGATC ((((((....))))))	-41.2
GCCTGCGAAAGCAAAGGC ((((((....)))..)))	-26.9
GCTCCGCGAAAGCACAGC (((..((....))..)))	-8.71
GCATCCCCGAAAGGGTGC (((..(((....))))))	-17.5
GGTTGAGAAATCAACC ((((((....))))))	-34
GCCTGCGAAAGCAACGGC ((((((....)))..)))	-23.6
GCCTTCGAAAGAATGGC ((((((....))).)))	-27.2
GCCTGGGGAAACCCGGGC (((.(((....))).)))	-39.2
GCGTCTCGAAAGAGCCGC (((.(((....))).)))	-42.6
GAAACCGAAAGGTACTTC ((((((....)))..)))	-17.8
GACTAGCGAAAGCTGTC (((.(((....))))))	-19.6
GATCGTGGCCACGATC ((((((....))))))	-62.6
GCGTATGTACGC ((((....))))	-22.4
GTTCGCGAAAGCGGCAAC ((((((....)))..)))	-10.2
GACTCCGAAAGGATCGTC ((((((....)))..)))	-23.3
GGGATGGGAAACCATCTC (.(((((....))))).)	-24.5
GCCCGAACGAAAGTTGGC (((..(((....))))))	-19.2
GATCGTAGGCACGATC ((((((....))))))	-37
GTGTGCGGAAACGCATGC (..((((....))))..)	-15.9
CGATTGCGGAAACGCTCG (((..(((....))))))	-15.9
GGTGCTGGAAACAGCATC (.(((((....))))).)	-30.3
GATCACTCTCGTGATC ((((((....))))))	-41.8
GCGTACGAAAGTATACGC ((((((....)))..)))	-34
GATCCCCTCGGGATC ((((((...))))))	-35.6
CGCGCGGAAACGCTCGCG ((((((....)))..)))	-23.4
GCCATACGAAAGTAAGGC (((.(((....))).)))	-35.1
GCCAAGCGAAAGCCCGGC (((..((....))..)))	-20.7
GTGCCCGAAAGGGCTCAC ((((((....)))..)))	-7.4
GCGTTCCGAAAGGACCGC (((.(((....))).)))	-46.4
GCATGGCGAAAGCCGAGC ((..(((....)))..))	-17.1
GCGGCAAGCCGC ((((....))))	-28.3
GATCGCTCTGCGATC ((((((...))))))	-41.8
GTAGACGAAAGTCCGTAC ((((((....)))..)))	-8.44
GAATTGCGAAAGCATTC (((.(((....))))))	-13.6

###

Assay: folding enthalpy; higher = less favourable; fluorescence melt of hairpins on a sequencing array, two-state fit
Details: sodium 0.088 M
Response key: Fulfilled means folding enthalpy >= -30 kcal/mol; Not fulfilled means folding enthalpy < -30 kcal/mol.

seqString	labelValue
GTCACAGCGAAAGCTGAC (((..(((....))))))	Fulfilled
GGCGCCGCGAAAGCGGCC (((..(((....))))))	Fulfilled
GGCTTCGAAAGAACGCC ((((((....))).)))	Fulfilled
GCTAACGAAAGTTCAGC ((((((....))).)))	Fulfilled
GTGTTGGGAAACTGACAC ((((..(....)..))))	Fulfilled
GAATGTGCGAAAGCATTC (((..(((....))))))	Fulfilled
GATTGCGAAAGCATCATC ((((((....)))..)))	Fulfilled
GATCCAAAATGGATC ((((((...))))))	Not fulfilled
GAGTAGGCGAAAGCCCTC (((..(((....))))))	Fulfilled
GGATTCGGAAACGAGTCC (((.(((....))).)))	Not fulfilled
GGAATGCGAAAGCAATCC (((.(((....))).)))	Fulfilled
GAAGTTGGAAACAACTTC (((((((....)))))))	Not fulfilled
GTGCCCGAAAGGGATCAC ((((((....)))..)))	Fulfilled
GTGGTATCGAAAGATCAC (((..(((....))))))	Fulfilled
GCATGCGAAAGCAGTTGC ((((((....)))..)))	Fulfilled
GTCCCCGAAAGGGCCGAC ((((((....)))..)))	Fulfilled
GTCGGCACGAAAGTGGAC (((..(((....))))))	Fulfilled
GAGTGCGAAAGCATGCTC ((((((....)))..)))	Fulfilled
GATCATGGAATGATC ((((((...))))))	Not fulfilled
GTTGATCGAAAGATAAC (((.(((....))))))	Fulfilled
GAATCACGAAAGTGTTTC (((.(((....))).)))	Fulfilled
GACGTTGGAAACGACGTC (((((.(....).)))))	Not fulfilled
GCGGGAGGAAACTTCCGC ((((.((....)).))))	Not fulfilled
GATGGCGAAAGCCCATC ((((((....))).)))	Fulfilled
GCGTCCGACGC ((((...))))	Fulfilled
GGTTTCGAAAGAATAACC ((((((....)))..)))	Fulfilled
GCCCATCGAAAGATCGGC (((.(((....))).)))	Not fulfilled
GCGATGCTCGC ((((...))))	Fulfilled
GGGACCGAAAGGTGGCCC ((((((....)))..)))	Fulfilled
GCGCAGCGAAAGCCACGC (((..((....))..)))	Fulfilled
GGGATCGCGAAAGCGCCC (((..(((....))))))	Fulfilled
GGTACCGAAAGGTGACC ((((((....))).)))	Fulfilled
GATCGACTGTCGATC ((((((...))))))	Not fulfilled
GATGTTGGAAACAACACC (.(((((....))))).)	Fulfilled
GTTCCGCGAAAGCGCAAC (((.(((....))).)))	Fulfilled
GCGCCAGGAAACCGGCAC (.(((.(....).))).)	Fulfilled
GATCACAGCTGTGATC ((((((....))))))	Not fulfilled
GAGTCGCCGAAAGGCCTC (((..(((....))))))	Fulfilled
GATGCGCGAAAGCGAATC (((.(((....))).)))	Fulfilled
GCAGCAGGAAACTGCTAC (.(((((....))))).)	Fulfilled
GGCAATGGAAACATTGCC (((((((....)))))))	Not fulfilled
GGGAACGAAAGTTTACCC ((((((....)))..)))	Fulfilled
GAGACTCCGAAAGGACTC (((..(((....))))))	Fulfilled
GATCCAGATATGGATC ((((((....))))))	Not fulfilled
GCACAGGGAAACCTACGC ((..(((....)))..))	Fulfilled
GATCGGGTCCCGATC ((((((...))))))	Not fulfilled
GGGGTCTCGAAAGAGCCC (((..(((....))))))	Fulfilled
GGGAGGAAACTCCC (((((....)))))	Not fulfilled
